Values from the supplement of paper PMC12632987

Target: T1, USP38, Q8NB14
T1 chain: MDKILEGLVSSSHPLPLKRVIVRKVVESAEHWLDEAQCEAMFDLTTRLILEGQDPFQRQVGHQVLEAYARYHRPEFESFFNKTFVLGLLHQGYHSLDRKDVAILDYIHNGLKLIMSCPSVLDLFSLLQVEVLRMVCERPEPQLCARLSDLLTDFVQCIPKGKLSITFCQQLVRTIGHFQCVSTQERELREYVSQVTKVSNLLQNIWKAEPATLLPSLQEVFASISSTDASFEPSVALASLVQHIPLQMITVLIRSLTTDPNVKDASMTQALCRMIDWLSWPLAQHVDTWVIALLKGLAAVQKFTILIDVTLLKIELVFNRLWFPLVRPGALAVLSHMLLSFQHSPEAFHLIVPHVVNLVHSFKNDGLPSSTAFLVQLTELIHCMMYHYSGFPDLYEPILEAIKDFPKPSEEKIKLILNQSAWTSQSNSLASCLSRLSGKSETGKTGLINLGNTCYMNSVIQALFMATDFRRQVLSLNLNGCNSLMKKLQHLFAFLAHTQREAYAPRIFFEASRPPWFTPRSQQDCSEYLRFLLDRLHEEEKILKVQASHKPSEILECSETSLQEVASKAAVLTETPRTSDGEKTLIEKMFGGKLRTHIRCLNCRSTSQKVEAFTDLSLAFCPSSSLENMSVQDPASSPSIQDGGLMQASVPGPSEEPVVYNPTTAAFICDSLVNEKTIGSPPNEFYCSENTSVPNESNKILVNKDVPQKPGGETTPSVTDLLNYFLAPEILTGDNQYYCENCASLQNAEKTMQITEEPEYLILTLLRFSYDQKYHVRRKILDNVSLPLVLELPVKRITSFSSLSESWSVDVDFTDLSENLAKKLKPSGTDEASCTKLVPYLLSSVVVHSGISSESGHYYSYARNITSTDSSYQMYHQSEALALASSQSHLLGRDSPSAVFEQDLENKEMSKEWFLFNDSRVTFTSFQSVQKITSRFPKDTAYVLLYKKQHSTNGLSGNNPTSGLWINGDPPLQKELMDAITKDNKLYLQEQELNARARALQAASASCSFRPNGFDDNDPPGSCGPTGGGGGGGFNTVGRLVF
Experiment: median log2 fold change of GCK-ALFA target abundance (FLAG IP / Myc IP barcode read proportion) (log2 ratio); each designed protein is fused to an ALFA-tag nanobody in HEK293 cells to bring the named protein to FLAG-tagged glucokinase (GCK); Myc marks an untargeted standard; higher = target protein stabilised (more abundant)
Conditions: target protein: 3xFLAG-MCP-GCK-ALFA reporter; HEK293 landing pad (RPLP)
Please note: class 1 applies when median log2 fold change is -0.4 or greater, and class 0 applies otherwise.

Solved entries:
>>> class_label("usp_38_diff_out_18_121_254 (protein) KAEELAKKALELAEEIEKLSKELLKAIKEGNKEKAEELRKKLDEKIRELGRLYQELRDLHAENPHETRELLKEVNEKANKAIDEREKAETAYFEFLAEQE")
"class 0"
>>> class_label("usp_38_diff_out_4_12_559 (protein) AEEEHKEALEKAKEELKKLSEETIKLAKELLEKVKKEKSRATLKEANEKLNKKITELAEATLKALELAETDEELQEILDLWDKTSTEISRLAKEMREILK")
"class 1"

Attention now shifts to the item below.
Enquiry: # check: median log2 fold change of usp_38_diff_out_5_164_584 (protein) EVEEAFKEMDALTEETIKKLNELLKEAKENPEKAEEYLKEATSLVNSALDKLNEITTETLEKHPEKAEEILKHYDERVTKLLTEYQKVKEEIQKIIEEAK is greater than or equal to -0.4
Return: class 1
